Test: Acute toxicity in mice, intraperitoneal
Conditions: mouse, in vivo, ip, mg/kg × 1, free acid
The entries below are paired with their reported LD50.
Field: numeric (mg/kg). Do not append units.

The examples below pair each entry with its known result.
Item Smiles	Units Of Measure	LD50
CNc1ccc2oc(C[C@H]3O[C@@]4(CC[C@H]3C)O[C@H]([C@H](C)C(=O)c3cc(I)c(I)[nH]3)[C@H](C)C[C@H]4C)nc2c1C(=O)O	mg/kg	100
CNc1ccc2oc(C[C@H]3O[C@@]4(CC[C@H]3C)O[C@H]([C@H](C)C(=O)c3cc(I)c[nH]3)[C@H](C)C[C@H]4C)nc2c1C(=O)O	mg/kg	25

Okay, next one:
Query block: Please report the recorded LD50 for CNc1ccc2oc(C[C@H]3O[C@@]4(CC[C@H]3C)O[C@H]([C@H](C)C(=O)c3ccc[nH]3)[C@H](C)C[C@H]4C)nc2c1C(=O)O .
Result block: 5.8

Measured values drawn from patent US4228293A for this set.
